// reported ETS1 binding intensity for each item listed
# Target desc: ETS1 (UniProt P14921)
# Sequence: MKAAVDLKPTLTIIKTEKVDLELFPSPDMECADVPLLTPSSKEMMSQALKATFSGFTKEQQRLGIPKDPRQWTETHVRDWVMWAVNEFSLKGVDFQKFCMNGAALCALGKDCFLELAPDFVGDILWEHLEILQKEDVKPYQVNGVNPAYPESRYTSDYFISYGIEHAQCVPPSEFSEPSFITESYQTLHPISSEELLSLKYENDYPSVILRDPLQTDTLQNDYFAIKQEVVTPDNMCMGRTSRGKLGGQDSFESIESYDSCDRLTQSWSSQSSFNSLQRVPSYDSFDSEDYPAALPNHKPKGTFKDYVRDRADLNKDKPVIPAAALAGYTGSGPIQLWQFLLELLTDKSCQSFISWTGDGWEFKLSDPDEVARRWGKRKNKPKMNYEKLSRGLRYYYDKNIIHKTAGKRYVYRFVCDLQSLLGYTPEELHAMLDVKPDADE
# Measurement protocol: ETS1 binding intensity (PBM fluorescence), ETS1 alone (arbitrary fluorescence units); higher = stronger binding
# Recorded conditions: ETS1 concentration 1 nM; RUNX1 concentration 0 nM
Whole data set: some 4,100 sequences, median “arbitrary fluorescence units” near 780, cut for the highest 2% near 22,000. This excerpt belongs to a sample that is enriched for the highest values.
Please give only the number in your answer, with no unit.

Check out these entries, answers already filled in.
Request - read-out ETS1 binding intensity | tested on ETS1 (UniProt P14921) | sequence `CGTCCCCGAAAAGCCGCGGCAGAAACTTCCGGCGGT`
3130

Request - read-out ETS1 binding intensity | tested on ETS1 (UniProt P14921) | sequence `GCCCCGGAAGCTCCTTAAGGAGGACCGTGTGAGTTT`
1880

Request - read-out ETS1 binding intensity | tested on ETS1 (UniProt P14921) | sequence `GGTCGCTCTGGTGACGGGGGAGGAAATTCTGTCCGT`
512

---
Request - read-out ETS1 binding intensity | tested on ETS1 (UniProt P14921) | sequence `AGCAACCTACTACCCGGCGCCTGATTCACTTCCCTC`
391

Request - read-out ETS1 binding intensity | tested on ETS1 (UniProt P14921) | sequence `AGTTTTCCGTCGGGCTCCCAGTGACGCCGAAGAGGT`
2580

Request - read-out ETS1 binding intensity | tested on ETS1 (UniProt P14921) | sequence `CGCCGAACTTCCGGCAGTAAATTCCGTGGATTCCCG`
27100

Request - read-out ETS1 binding intensity | tested on ETS1 (UniProt P14921) | sequence `GGACCGGAAGTTAAGGCGTTCGCGGCGTGTGATAAG`
22900

Request - read-out ETS1 binding intensity | tested on ETS1 (UniProt P14921) | sequence `CGGGAGCGGCCGAAGTGACGACTTCCGGGATGCTCC`
7380

Request - read-out ETS1 binding intensity | tested on ETS1 (UniProt P14921) | sequence `CCCTCCGGCCCTCAGCCCTGCCCAAACGGAAGTGCT`
787

Request - read-out ETS1 binding intensity | tested on ETS1 (UniProt P14921) | sequence `GCCCACGCCGCTGGGAGGTGAGACTGAAGGAAGCAC`
402

Request - read-out ETS1 binding intensity | tested on ETS1 (UniProt P14921) | sequence `CTCCTGCTCACAGAAGCTCACTGTTTCCTGTCTAGC`
2690

Request - read-out ETS1 binding intensity | tested on ETS1 (UniProt P14921) | sequence `TTATCTGTCGTTCTTTTATGGGGTGGGCTTCCTCTG`
503

----------
// reported ETS1 binding intensity for each item listed
# Target desc: ETS1 (UniProt P14921)
# Sequence: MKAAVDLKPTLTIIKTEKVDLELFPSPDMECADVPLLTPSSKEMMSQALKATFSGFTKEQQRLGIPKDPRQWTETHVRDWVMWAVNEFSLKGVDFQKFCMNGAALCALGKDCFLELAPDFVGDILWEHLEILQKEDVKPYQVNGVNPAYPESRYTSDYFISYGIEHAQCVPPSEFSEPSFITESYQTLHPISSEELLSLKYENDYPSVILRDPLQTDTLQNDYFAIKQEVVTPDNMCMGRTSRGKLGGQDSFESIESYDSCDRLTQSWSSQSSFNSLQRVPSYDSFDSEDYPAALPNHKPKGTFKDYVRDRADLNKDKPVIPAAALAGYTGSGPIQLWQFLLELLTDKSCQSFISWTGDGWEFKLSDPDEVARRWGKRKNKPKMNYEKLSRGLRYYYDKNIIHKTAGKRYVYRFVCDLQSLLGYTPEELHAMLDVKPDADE
# Measurement protocol: ETS1 binding intensity (PBM fluorescence), ETS1 alone (arbitrary fluorescence units); higher = stronger binding
# Recorded conditions: ETS1 concentration 1 nM; RUNX1 concentration 0 nM
Whole data set: some 4,100 sequences, median “arbitrary fluorescence units” near 780, cut for the highest 2% near 22,000. What follows is part of a selection rich in the highest values, with near analogues and random picks from the rest.
Please give only the number in your answer, with no unit.

Check out these entries, answers already filled in.
Give its ETS1 binding intensity value. Item: `CCAGACCCGGCGGAACTACCGTGCCCTCAAGGCAGC`
477

Give its ETS1 binding intensity value. Item: `CCGCGTCCTCAGAGGTCCGGCCGGAAGTCACCTGAA`
8340

Give its ETS1 binding intensity value. Item: `ACAGAGGTGCTACCCCAAGGACCGGAAGCAGAGACC`
3940

Give its ETS1 binding intensity value. Item: `GCGGAGCTTGTAGGCCAGGAGGACTTCCGGGTGGGT`
2220

---
Give its ETS1 binding intensity value. Item: `CGGAGCCCAACGACCGGCACTTCCGGGGGGCGGGTG`
5010

Give its ETS1 binding intensity value. Item: `TCCCTCCTTCCGCTCTGGTTTTGGGGTTGCTTGCTG`
6220

Give its ETS1 binding intensity value. Item: `ACCAACCGGAAGTGATCGTGTCGTGGCCGAAGGAGG`
32300

Give its ETS1 binding intensity value. Item: `CGGCCTCTTCCGGTCACCTGGCCCGTCGCTGTCCCG`
17300

Give its ETS1 binding intensity value. Item: `GCACTTCCGGAGCCGGGCGTCTACAGGCCGAGGCCA`
28500

Give its ETS1 binding intensity value. Item: `GGCACTTCCGGTCCTGACCTGAAGCGCTCACCGTCA`
55000

Give its ETS1 binding intensity value. Item: `ATGGAAAGGAAGTCGGTGGGAATCCGCCTCAGCGGT`
1590

Give its ETS1 binding intensity value. Item: `AGTTTCCTGAACTCAGAGCACAGTTCTGGTGCAGAA`
6300

----------
# Target desc: ETS1 (UniProt P14921)
# Sequence: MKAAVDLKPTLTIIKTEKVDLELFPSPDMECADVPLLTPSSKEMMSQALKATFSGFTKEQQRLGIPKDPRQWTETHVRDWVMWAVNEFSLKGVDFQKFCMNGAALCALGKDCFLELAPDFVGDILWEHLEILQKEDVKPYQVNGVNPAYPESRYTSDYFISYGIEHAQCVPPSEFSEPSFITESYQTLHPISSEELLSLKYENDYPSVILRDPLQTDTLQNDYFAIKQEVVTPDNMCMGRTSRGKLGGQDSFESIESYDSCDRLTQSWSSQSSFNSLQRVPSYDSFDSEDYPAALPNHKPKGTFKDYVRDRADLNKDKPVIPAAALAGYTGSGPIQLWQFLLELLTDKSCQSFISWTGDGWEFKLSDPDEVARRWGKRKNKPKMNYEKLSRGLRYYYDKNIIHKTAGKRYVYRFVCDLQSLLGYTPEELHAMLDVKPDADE
# Measurement protocol: ETS1 binding intensity (PBM fluorescence), ETS1 alone (arbitrary fluorescence units); higher = stronger binding
# Recorded conditions: ETS1 concentration 1 nM; RUNX1 concentration 0 nM
In all, about 4,100 sequences were measured (“arbitrary fluorescence units”: median about 780, highest 2% from about 22,000 on). For the sample, the highest values were picked, then their nearest neighbours and some sequences at random.
Could you label it condition met if measured ETS1 binding intensity is 2000 or higher, and condition not met otherwise?

Study these solved cases before continuing.
Given `CTCCCACATCCGAAGCGGCGCAACTCACAACAGCCT` , state whether its ETS1 binding intensity is at least 2000.
condition not met

Given `CTTACGGCCTCGCGCCATGGGCAGTATCCGCCGCCA` , state whether its ETS1 binding intensity is at least 2000.
condition not met

Given `CACCTGACTACAAGGCACACGAACATCCTTATCACA` , state whether its ETS1 binding intensity is at least 2000.
condition not met

Then this sequence:
Given `GCCCGGCTTAGCCGCGTCGCGGAAGTCCGCTCTCTG` , state whether its ETS1 binding intensity is at least 2000.
condition not met
